Target: human monoacylglycerol lipase (MGL) (Homo sapiens)
Sequence (Q99685 1-303): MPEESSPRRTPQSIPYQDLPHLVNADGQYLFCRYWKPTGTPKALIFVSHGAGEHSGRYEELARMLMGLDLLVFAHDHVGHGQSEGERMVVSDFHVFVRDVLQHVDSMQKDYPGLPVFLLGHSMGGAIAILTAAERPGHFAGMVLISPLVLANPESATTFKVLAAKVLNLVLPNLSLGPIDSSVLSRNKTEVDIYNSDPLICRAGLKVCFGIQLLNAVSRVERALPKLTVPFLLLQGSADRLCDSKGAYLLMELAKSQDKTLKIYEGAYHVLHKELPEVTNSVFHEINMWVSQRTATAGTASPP
pIC50: −log10 of the molar value.

| structure | pIC50 |
| --- | --- |
| CC[C@H](CC[C@@H](C)[C@H]1CC[C@H]2[C@@H]3CC=C4C[C@@H](O)CC[C@]4(C)[C@H]3CC[C@]12C)C(C)C | 4.71 |
